# PROTOCOL: Solubility in different aqueous media at 37° C.
# Assay type: physicochemical
# CONDITION DETAILS: sodium phosphate buffer, 37 °C, pH 6.8, aqueous buffer, thermodynamic from solid, 0.05M sodium phosphate buffer pH 6.8; 1 day; single replicates; read-out: Solubility, μg dissolved per mL at 37° C., replicates
RECORDED METRIC: solubility at 1 day (µg/mL)
Give your result in µg/mL as a bare value.

Can you look up the measured solubility at 1 day of C[C@@H]1CCC[C@H](n2cnc(-c3cc(Cl)ccc3-n3cc(Cl)nn3)cc2=O)c2cc(ccn2)-c2c(cnn2C(F)F)NC1=O [P1.Acetone solvate] for me? 1.53

---

# PROTOCOL: Solubility of milvexian forms in organic solvent systems
# Type: physicochemical
# CONDITION DETAILS: 70/30 DCM/MeOH, 20 °C, organic solvent or mixture, 70/30 DCM/MeOH; temperature 20; read-out: Solubility in mg/mL solution
RECORDED METRIC: solubility

Can you look up the measured solubility of C[C@@H]1CCC[C@H](n2cnc(-c3cc(Cl)ccc3-n3cc(Cl)nn3)cc2=O)c2cc(ccn2)-c2c(cnn2C(F)F)NC1=O [Milvexian] for me? > 200 mg/mL

---

# PROTOCOL: Solubility of milvexian forms in organic solvent systems
# Format: physicochemical
# CONDITION DETAILS: 100% DCM, 20 °C, organic solvent or mixture, thermodynamic from solid, 100% DCM; 20° C.; 24 hours; read-out: Solubility in mg/mL solution 24 hours
RECORDED METRIC: solubility at 24 hours (mg/mL)
Give your result in mg/mL as a bare value.

Can you look up the measured solubility at 24 hours of C[C@@H]1CCC[C@H](n2cnc(-c3cc(Cl)ccc3-n3cc(Cl)nn3)cc2=O)c2cc(ccn2)-c2c(cnn2C(F)F)NC1=O [P1.Acetone solvate] for me? 33

---

# PROTOCOL: Solubility of milvexian forms in organic solvent systems
# Assay type: physicochemical
# CONDITION DETAILS: 40/60 DCM/MeOH, 20 °C, organic solvent or mixture, 40/60 DCM/MeOH; temperature 20; read-out: Solubility in mg/mL solution
RECORDED METRIC: solubility (mg/mL)
Give your result in mg/mL as a bare value.

Can you look up the measured solubility of `C[C@@H]1CCC[C@H](n2cnc(-c3cc(Cl)ccc3-n3cc(Cl)nn3)cc2=O)c2cc(ccn2)-c2c(cnn2C(F)F)NC1=O` for me? 29

---

# PROTOCOL: Solubility of milvexian forms in organic solvent systems
# Type: physicochemical
# CONDITION DETAILS: 60/40 DCM/MeOH, 20 °C, organic solvent or mixture, thermodynamic from solid, 60/40 DCM/MeOH; 20° C.; 2 weeks; read-out: Solubility in mg/mL solution 2 weeks
# Procedure: While heating of the feed solution is a viable solution for production, it is a more complex set-up and with risk of crashing out dissolved solids in case of cold spots and plant safety. […] Based on the data it was determined that 70/30 w/w % DCM/MeOH and 80/20 w/w % were promising solvent mixtures and more accurate solubility determination was carried out for 80/20 w/w % DCM/MeOH for both FORM A and P1.Acetone solvate at 20° C. with the results shown in Table 12 below. […]
RECORDED METRIC: solubility at 2 weeks (mg/mL)
Give your result in mg/mL as a bare value.

Can you look up the measured solubility at 2 weeks of C[C@@H]1CCC[C@H](n2cnc(-c3cc(Cl)ccc3-n3cc(Cl)nn3)cc2=O)c2cc(ccn2)-c2c(cnn2C(F)F)NC1=O [P1.Acetone solvate] for me? 99

Entry source: patent US20260224494A1
